# Test system: Botrytis cinerea
# test.details: Spore germination test
# Assay type: cell-based
# conditions.used: BC, 40 ppm, 48 hours
In this section, each of the compounds is paired with its reported Spore Germination Rating.
measure: Spore Germination Rating

[[record]]
compound = "Cc1cccc(Oc2nsnc(Cl)c2=O)c1"
measured_result = "0 (0-10)"

[[record]]
compound = "COc1cc(Cl)cc(Oc2nsnc(Cl)c2=O)c1"
measured_result = "0 (0-10)"

[[record]]
compound = "CCCCNC(=O)n1c(NC(=O)OC)nc2ccccc21 [Benomyl, reference compound]"
measured_result = "4 (80-100)"

[[record]]
compound = "O=C(O)c1ccc(Oc2nsnc(Cl)c2=O)cc1"
measured_result = "4 (80-100)"

[[record]]
compound = "O=C(Nc1ccccc1)Oc1ccc(Oc2nsnc(Cl)c2=O)cc1"
measured_result = "4 (80-100)"

[[record]]
compound = "CSc1ccc(Oc2nsnc(Cl)c2=O)cc1"
measured_result = "3 (60-80)"

[[record]]
compound = "CC(C)(C)c1ccc(Oc2nsnc(Cl)c2=O)cc1"
measured_result = "2 (40-60)"

[[record]]
compound = "O=c1c(Cl)nsnc1Oc1ccccc1Cl"
measured_result = "0 (0-10)"

[[record]]
compound = "O=c1c(Cl)nsnc1Oc1ccc([N+](=O)[O-])cc1"
measured_result = "0 (0-10)"

[[record]]
compound = "O=c1c(Cl)nsnc1Oc1c(Cl)cccc1Cl"
measured_result = "0 (0-10)"

[[record]]
compound = "Cc1ccc(Oc2nsnc(Cl)c2=O)c(C)c1"
measured_result = "0 (0-10)"

[[record]]
compound = "COc1cc(Oc2nsnc(Cl)c2=O)cc(OC)c1C(C)=O"
measured_result = "2 (40-60)"

[[record]]
compound = "CC(=O)c1cccc(Oc2nsnc(Cl)c2=O)c1"
measured_result = "0 (0-10)"

[[record]]
compound = "O=c1c(Cl)nsnc1Oc1cccc(Cl)c1"
measured_result = "0 (0-10)"

[[record]]
compound = "O=c1c(Cl)nsnc1Oc1ccccc1Br"
measured_result = "0 (0-10)"

[[record]]
compound = "CNC(=O)Nc1ccc(Oc2nsnc(Cl)c2=O)cc1"
measured_result = "0 (0-10)"

[[record]]
compound = "C[S+]([O-])c1ccc(Oc2nsnc(Cl)c2=O)cc1 (stereo not drawn)"
measured_result = "3 (60-80)"

[[record]]
compound = "O=c1c(Cl)nsnc1Oc1cc(Cl)cc(Cl)c1"
measured_result = "0 (0-10)"

[[record]]
compound = "O=c1c(Cl)nsnc1Oc1ccc(F)cc1"
measured_result = "0 (0-10)"

[[record]]
compound = "O=c1c(Cl)nsnc1Oc1ccc(Cl)cc1Cl"
measured_result = "0 (0-10)"

[[record]]
compound = "CC(=O)Nc1cccc(Oc2nsnc(Cl)c2=O)c1"
measured_result = "1 (10-40)"

[[record]]
compound = "Cc1cc(C)cc(Oc2nsnc(Cl)c2=O)c1"
measured_result = "0 (0-10)"

[[record]]
compound = "CC(=O)Nc1ccc(Oc2nsnc(Cl)c2=O)cc1"
measured_result = "4 (80-100)"

[[record]]
compound = "CS(=O)(=O)c1ccc(Oc2nsnc(Cl)c2=O)cc1"
measured_result = "3 (60-80)"

[[record]]
compound = "O=c1c(Cl)nsnc1Oc1ccc([N+](=O)[O-])cc1Cl"
measured_result = "0 (0-10)"

[[record]]
compound = "Nc1ccc(Oc2nsnc(Cl)c2=O)cc1"
measured_result = "0 (0-10)"

[[record]]
compound = "Cc1ccc(Oc2nsnc(Cl)c2=O)c(Br)c1"
measured_result = "0 (0-10)"

[[record]]
compound = "O=C(OCc1ccccc1)Oc1ccc(Oc2nsnc(Cl)c2=O)cc1"
measured_result = "3 (60-80)"

[[record]]
compound = "CC(=O)c1ccccc1Oc1nsnc(Cl)c1=O"
measured_result = "0 (0-10)"

[[record]]
compound = "Cc1cc(Cl)c(Oc2nsnc(Cl)c2=O)cc1C"
measured_result = "0 (0-10)"

[[record]]
compound = "N#Cc1ccc(Oc2nsnc(Cl)c2=O)cc1"
measured_result = "0 (0-10)"

[[record]]
compound = "Cc1ccc(Cl)c(Oc2nsnc(Cl)c2=O)c1"
measured_result = "0 (0-10)"

[[record]]
compound = "COc1ccc(Cl)c(Oc2nsnc(Cl)c2=O)c1"
measured_result = "0 (0-10)"

